# Test system: LPS-induced NO production in RAW 264.7 cells
# PROTOCOL_DETAILS: NO production in LPS-activated RAW 264.7 macrophage cells (DAF-FM diacetate)
# Format: cell-based
# RUN_CONDITIONS: Mus musculus, RAW264.7; LPS-activated RAW 264.7 cells; mean ± SEM, three replicates
QUANTITY_KIND: IC50 (µM)
Only the number, expressed in µM, is required.

| COMPOUND | ASSAY_VALUE |
| --- | --- |
| CN1c2ccccc2C(=O)N(NC(=O)Nc2ccc(F)cc2)C1c1ccc(F)cc1 (stereo not shown) | 19.9 |
| COc1ccc(C2N(NC(=O)Nc3ccc(F)cc3)C(=O)c3ccccc3N2C)cc1 (stereo not shown) | 10.8 |

Proceed to the following item.
**Query** Specify IC50 for CN1c2ccccc2C(=O)N(NC(=O)Nc2ccc(F)cc2)C1c1ccc([N+](=O)[O-])cc1 (stereo not shown) , system LPS-induced NO production in RAW 264.7 cells.
**Result** 1.97

###

# Test system: OVCAR-5
# PROTOCOL_DETAILS: NCI single dose screen, OVCAR-5
# Assay type: cell-based
# RUN_CONDITIONS: Homo sapiens; OVCAR-5, ovarian cancer; single dose 10^−5 M; read-out: growth inhibition percentage
# maps each entry to its inhibition at 10 µM

**Query** Return inhibition at 10 µM for the following compound: CN1c2ccccc2C(=O)N(NC(=O)Nc2ccc(F)cc2)C1c1ccc([N+](=O)[O-])cc1 (stereo not shown) [Compound 6o]
**Result** < 10%

**Query** Return inhibition at 10 µM for the following compound: CN1c2ccccc2C(=O)N(NC(=O)Nc2ccc(F)cc2)C1c1ccccc1 (stereo not shown) [Compound 6m]
**Result** < 10%

**Query** Return inhibition at 10 µM for the following compound: CN1c2ccccc2C(=O)N(NC(=O)Nc2ccccc2)C1c1ccc(F)cc1 (stereo not shown) [Compound 6d]
**Result** < 10%

**Query** Return inhibition at 10 µM for the following compound: COc1ccc(C2N(NC(=O)Nc3ccc(F)cc3)C(=O)c3ccccc3N2C)cc1 (stereo not shown) [Compound 6p]
**Result** < 10%

**Query** Return inhibition at 10 µM for the following compound: CN1c2ccccc2C(=O)N(NC(=O)Nc2ccccc2)C1c1ccccc1 (stereo not shown) [Compound 6c]
**Result** < 10%

**Query** Return inhibition at 10 µM for the following compound: CN1CN(NC(=O)Nc2ccccc2)C(=O)c2ccccc21 [Compound 6a]
**Result** < 10%

**Query** Return inhibition at 10 µM for the following compound: CN1c2ccccc2C(=O)N(NC(=O)Nc2ccccc2)C1c1ccc([N+](=O)[O-])cc1 (stereo not shown) [Compound 6e]
**Result** < 10%

**Query** Return inhibition at 10 µM for the following compound: CN1c2ccccc2C(=O)N(NC(=O)Nc2ccc(F)cc2)C1c1ccc(F)cc1 (stereo not shown) [Compound 6n]
**Result** < 10%

**Query** Return inhibition at 10 µM for the following compound: COc1ccc(NC(=O)NN2C(=O)c3ccccc3N(C)C2c2ccc(OC)cc2)cc1 (stereo not shown) [Compound 6j]
**Result** < 10%

**Query** Return inhibition at 10 µM for the following compound: CC1N(NC(=O)Nc2ccc(F)cc2)C(=O)c2ccccc2N1C (stereo not shown) [Compound 6l]
**Result** < 10%

###

Target chain: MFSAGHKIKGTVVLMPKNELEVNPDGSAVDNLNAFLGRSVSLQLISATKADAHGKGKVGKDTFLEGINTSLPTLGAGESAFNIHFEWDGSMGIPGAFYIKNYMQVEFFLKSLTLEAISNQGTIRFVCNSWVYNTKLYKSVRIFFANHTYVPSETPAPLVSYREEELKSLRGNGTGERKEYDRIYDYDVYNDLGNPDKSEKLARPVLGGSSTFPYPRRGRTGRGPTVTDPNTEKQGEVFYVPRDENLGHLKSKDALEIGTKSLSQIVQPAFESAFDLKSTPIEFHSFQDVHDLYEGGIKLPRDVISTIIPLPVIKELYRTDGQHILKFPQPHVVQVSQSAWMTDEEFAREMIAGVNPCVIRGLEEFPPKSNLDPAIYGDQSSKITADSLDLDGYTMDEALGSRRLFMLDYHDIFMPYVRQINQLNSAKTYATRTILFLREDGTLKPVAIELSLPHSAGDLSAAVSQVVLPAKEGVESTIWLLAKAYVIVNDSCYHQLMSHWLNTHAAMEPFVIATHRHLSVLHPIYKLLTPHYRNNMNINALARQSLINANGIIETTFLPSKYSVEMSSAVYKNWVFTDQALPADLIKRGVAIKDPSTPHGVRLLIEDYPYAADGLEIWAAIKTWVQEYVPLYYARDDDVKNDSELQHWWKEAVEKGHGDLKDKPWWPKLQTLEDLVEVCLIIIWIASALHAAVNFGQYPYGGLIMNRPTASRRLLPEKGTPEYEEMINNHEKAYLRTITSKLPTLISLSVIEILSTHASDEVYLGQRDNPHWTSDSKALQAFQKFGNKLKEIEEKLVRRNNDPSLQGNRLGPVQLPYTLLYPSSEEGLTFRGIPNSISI
QUANTITY_KIND: pIC50
Note: pIC50 values are expressed as the negative base-10 logarithm of concentration in M.

The cases that follow already have their pIC50 on record.
| COMPOUND | ASSAY_VALUE |
| --- | --- |
| COc1ccc(NC(=O)NN2C(=O)c3ccccc3N(C)C2c2ccc(OC)cc2)cc1 (centres unmarked) | 5.71 |
| CN1c2ccccc2C(=O)N(NC(=O)Nc2ccc(F)cc2)C1c1ccc([N+](=O)[O-])cc1 (centres unmarked) | 5.85 |
| CN1c2ccccc2C(=O)N(NC(=O)Nc2ccccc2)C1c1ccccc1 (centres unmarked) | 5.87 |

**Query** Return pIC50 for the following compound: CC1N(NC(=O)Nc2ccc(F)cc2)C(=O)c2ccccc2N1C (centres unmarked)
**Result** 5.80

**Query** Return pIC50 for the following compound: CN1c2ccccc2C(=O)N(NC(=O)Nc2ccccc2)C1c1ccc(F)cc1 (centres unmarked)
**Result** 5.71

###

# Test system: MOLT-4
# PROTOCOL_DETAILS: NCI single dose screen, MOLT-4
# Format: cell-based
# RUN_CONDITIONS: Homo sapiens; MOLT-4, leukaemia; single dose 10^−5 M; read-out: growth inhibition percentage
QUANTITY_KIND: inhibition at 10 µM (%)
Only the number, expressed in %, is required.

The cases that follow already have their inhibition at 10 µM on record.
| COMPOUND | ASSAY_VALUE |
| --- | --- |
| CN1c2ccccc2C(=O)N(NC(=O)Nc2ccc(F)cc2)C1c1ccc([N+](=O)[O-])cc1 (stereo not shown) | 20.4 |
| CN1c2ccccc2C(=O)N(NC(=O)Nc2ccc(F)cc2)C1c1ccc(F)cc1 (stereo not shown) | 43.1 |
| COc1ccc(C2N(NC(=O)Nc3ccc(F)cc3)C(=O)c3ccccc3N2C)cc1 (stereo not shown) | 11.2 |
| CN1c2ccccc2C(=O)N(NC(=O)Nc2ccccc2)C1c1ccc(F)cc1 (stereo not shown) | 11.1 |

Proceed to the following item.
**Query** Return inhibition at 10 µM for the following compound: CN1c2ccccc2C(=O)N(NC(=O)Nc2ccc(F)cc2)C1c1ccccc1 (stereo not shown)
**Result** 23.5

###

# Tested on: ACHN
# PROTOCOL_DETAILS: NCI single dose screen, ACHN
# Format: cell-based
# RUN_CONDITIONS: Homo sapiens, renal cancer, single dose 10^−5 M, read-out: growth inhibition percentage
QUANTITY_KIND: inhibition at 10 µM

| MOLECULE | ASSAY_VALUE |
| --- | --- |
| CN1c2ccccc2C(=O)N(NC(=O)Nc2ccccc2)C1c1ccc(F)cc1 (centres unmarked) | < 10% |
| CN1c2ccccc2C(=O)N(NC(=O)Nc2ccc(F)cc2)C1c1ccccc1 (centres unmarked) | < 10% |

**Query** Return inhibition at 10 µM for the following molecule: CN1c2ccccc2C(=O)N(NC(=O)Nc2ccc(F)cc2)C1c1ccc([N+](=O)[O-])cc1 (centres unmarked)
**Result** < 10%

**Query** Return inhibition at 10 µM for the following molecule: CC1N(NC(=O)Nc2ccc(F)cc2)C(=O)c2ccccc2N1C (centres unmarked)
**Result** < 10%

**Query** Return inhibition at 10 µM for the following molecule: CN1c2ccccc2C(=O)N(NC(=O)Nc2ccc(F)cc2)C1c1ccc(F)cc1 (centres unmarked)
**Result** 12.6%

###

# Tested on: UACC-62
# PROTOCOL_DETAILS: NCI single dose screen, UACC-62
# Format: cell-based
# RUN_CONDITIONS: Homo sapiens; UACC-62, melanoma; single dose 10^−5 M; read-out: growth inhibition percentage
# Protocol: Screening of the anticancer activity of the newly synthesised compounds (6a, 6c, 6d, 6e, 6j, 6l, 6m, 6n, 6o, and 6p) was performed by the US National Cancer Institute (NCI) using 60 different human tumour cell lines in accordance with standard procedures formerly reported. […]
QUANTITY_KIND: inhibition at 10 µM (%)
Only the number, expressed in %, is required.

The cases that follow already have their inhibition at 10 µM on record.
| COMPOUND | UNITS_OF_MEASURE | ASSAY_VALUE |
| --- | --- | --- |
| CN1c2ccccc2C(=O)N(NC(=O)Nc2ccccc2)C1c1ccc(F)cc1 (stereo not shown) | % | 15.1 |
| CN1c2ccccc2C(=O)N(NC(=O)Nc2ccc(F)cc2)C1c1ccccc1 (stereo not shown) | % | 20.7 |
| CN1c2ccccc2C(=O)N(NC(=O)Nc2ccc(F)cc2)C1c1ccc([N+](=O)[O-])cc1 (stereo not shown) | % | 27.4 |

Proceed to the following item.
**Query** Return inhibition at 10 µM for the following compound: CN1c2ccccc2C(=O)N(NC(=O)Nc2ccc(F)cc2)C1c1ccc(F)cc1 (stereo not shown)
**Result** 38.1
